Test system: Klebsiella pneumoniae
experiment: MIC, compound in combination with a second agent (broth microdilution)
Type: cell-based
assay.conditions: 1:1 (wt:wt) combination with Rifampicin; MIC = total drug concentration; strain CCUG-59348
Counter-ions that a name gives are not always drawn. Numbered stars: 1 amine (or outer) side, 2 acyl side, 3 side chain; on linkers, the order of the positions; unused ones are H or OH. Bridge positions count the residues as written; N and C are the ends. Square brackets hold non-standard residues; d marks the D form. Peptide text beside a SMILES is read from it. * marks the point of attachment. ξ: configuration not given here. Acetyl(cis-4-NH-cyclohexyl) = O=C(C[C@H]1CC[C@@H](N[*:1])CC1)[*:2]; ξβ3hGly(cHex) = NC(CC(=O)*)C1CCCCC1; X12 = CC(C)C[C@H](N)[C@H](O)C(=O)*; X17 = CN1CCN(c2ccc(C(=O)*)cc2)CC1; X24 = O=C(CCN1CCS(=O)(=O)CC1)*; Thr(3ξ) = CC(O)[C@H](N)C(=O)O; X5 = O=C(C[C@@H]1CCCCN1)*; Dab = NCC[C@H](N)C(=O)O; Inp = O=C(O)C1CCNCC1; Ava = NCCCCC(=O)O; βAla = NCCC(=O)O
Please respond with reported MIC K. pneumoniae CCUG-59348 for every item in the list.
Answers are plain numbers, in micrograms/mL.

>  <compound>
CC(C)C[C@@H]1NC(=O)[C@@H](Cc2ccccc2)NC(=O)[C@H](CCN)NC(=O)[C@@H](NC(=O)[C@H](CCN)NC(=O)[C@@H](NC(=O)C[C@H]2CC[C@@H](N)CC2)C(C)O)CCNC(=O)[C@H](C(C)O)NC(=O)[C@H](CCN)NC(=O)[C@H](CCN)NC1=O (stereo partly drawn) [Example 36, trifluoroacetate salt] ({Acetyl(cis-4-NH-cyclohexyl)}-[Thr(3ξ)][Dab][Dab][Dab][dF]L[Dab][Dab][Thr(3ξ)]; lactam 3-C)

>  <experimental.target>
Klebsiella pneumoniae

>  <MIC K. pneumoniae CCUG-59348, micrograms/mL>
4

$$$$
>  <compound>
CC(C)C[C@@H]1NC(=O)[C@@H](CC(C)C)NC(=O)[C@H](CCN)NC(=O)[C@@H](NC(=O)[C@H](CCN)NC(=O)[C@@H](NC(=O)C(O)C2CCCCC2)C(C)O)CCNC(=O)[C@H](C(C)O)NC(=O)[C@H](CCN)NC(=O)[C@H](CCN)NC1=O (single isomer, unassigned; isomer 2) [Example 32]

>  <experimental.target>
Klebsiella pneumoniae

>  <MIC K. pneumoniae CCUG-59348, micrograms/mL>
2

$$$$
>  <compound>
CC(C)C[C@@H]1NC(=O)[C@@H](Cc2ccccc2)NC(=O)[C@H](CCN)NC(=O)[C@@H](NC(=O)[C@H](CCN)NC(=O)[C@@H](NC(=O)C[C@@H]2CCCCN2)C(C)O)CCNC(=O)[C@H](C(C)O)NC(=O)[C@H](CCN)NC(=O)[C@H](CCN)NC1=O (stereo partly shown) [Example 33, trifluoroacetate salt] (X5-[Thr(3ξ)][Dab][Dab][Dab][dF]L[Dab][Dab][Thr(3ξ)]; lactam 3-C)

>  <experimental.target>
Klebsiella pneumoniae

>  <MIC K. pneumoniae CCUG-59348, micrograms/mL>
2

$$$$
>  <compound>
CC(C)C[C@@H]1NC(=O)[C@@H](CC(C)C)NC(=O)[C@H](CCN)NC(=O)[C@@H](NC(=O)[C@H](CCN)NC(=O)[C@@H](NC(=O)CC(N)C2CCCCC2)C(C)O)CCNC(=O)[C@H](C(C)O)NC(=O)[C@H](CCN)NC(=O)[C@H](CCN)NC1=O (stereo partly drawn) [Example 30, TFA salt] ({ξβ3hGly(cHex)}-[Thr(3ξ)][Dab][Dab][Dab][dL]L[Dab][Dab][Thr(3ξ)]; lactam 3-C)

>  <experimental.target>
Klebsiella pneumoniae

>  <MIC K. pneumoniae CCUG-59348, micrograms/mL>
2

$$$$
>  <compound>
CC(C)C[C@@H]1NC(=O)[C@@H](Cc2ccccc2)NC(=O)[C@H](CCN)NC(=O)[C@@H](NC(=O)[C@H](CCN)NC(=O)[C@@H](NC(=O)C2CCNCC2)C(C)O)CCNC(=O)[C@H](C(C)O)NC(=O)[C@H](CCN)NC(=O)[C@H](CCN)NC1=O (stereo partly shown) [Example 29] (H-[Inp][Thr(3ξ)][Dab][Dab][Dab][dF]L[Dab][Dab][Thr(3ξ)]; lactam 4-C)

>  <experimental.target>
Klebsiella pneumoniae

>  <MIC K. pneumoniae CCUG-59348, micrograms/mL>
4

$$$$
>  <compound>
CC(C)C[C@@H]1NC(=O)[C@@H](Cc2ccccc2)NC(=O)[C@H](CCN)NC(=O)[C@@H](NC(=O)[C@H](CCN)NC(=O)[C@@H](NC(=O)CCN)C(C)O)CCNC(=O)[C@H](C(C)O)NC(=O)[C@H](CCN)NC(=O)[C@H](CCN)NC1=O (stereo partly shown) [Example 3, 3-Aminopropanoyl polymyxin B nonapeptide] (H-[βAla][Thr(3ξ)][Dab][Dab][Dab][dF]L[Dab][Dab][Thr(3ξ)]; lactam 4-C)

>  <experimental.target>
Klebsiella pneumoniae

>  <MIC K. pneumoniae CCUG-59348, micrograms/mL>
8

$$$$
>  <compound>
CC(C)C[C@@H]1NC(=O)[C@@H](Cc2ccccc2)NC(=O)[C@H](CCN)NC(=O)[C@@H](NC(=O)[C@H](CCN)NC(=O)[C@@H](NC(=O)CCCCN)C(C)O)CCNC(=O)[C@H](C(C)O)NC(=O)[C@H](CCN)NC(=O)[C@H](CCN)NC1=O (stereo partly shown) [Example 6, 5-Aminopentanoyl polymyxin B nonapeptide] (H-[Ava][Thr(3ξ)][Dab][Dab][Dab][dF]L[Dab][Dab][Thr(3ξ)]; lactam 4-C)

>  <experimental.target>
Klebsiella pneumoniae

>  <MIC K. pneumoniae CCUG-59348, micrograms/mL>
4

$$$$
>  <compound>
CC(C)C[C@@H]1NC(=O)[C@@H](Cc2ccccc2)NC(=O)[C@H](CCN)NC(=O)[C@@H](NC(=O)[C@H](CCN)NC(=O)[C@@H](NC(=O)[C@@H](O)[C@@H](N)CC(C)C)C(C)O)CCNC(=O)[C@H](C(C)O)NC(=O)[C@H](CCN)NC(=O)[C@H](CCN)NC1=O (stereo partly shown) [Example 41, trifluoroacetate salt] (X12-[Thr(3ξ)][Dab][Dab][Dab][dF]L[Dab][Dab][Thr(3ξ)]; lactam 3-C)

>  <experimental.target>
Klebsiella pneumoniae

>  <MIC K. pneumoniae CCUG-59348, micrograms/mL>
2

$$$$
>  <compound>
CC(C)C[C@@H]1NC(=O)[C@@H](Cc2ccccc2)NC(=O)[C@H](CCN)NC(=O)[C@@H](NC(=O)[C@H](CCN)NC(=O)[C@@H](NC(=O)CCN2CCS(=O)(=O)CC2)C(C)O)CCNC(=O)[C@H](C(C)O)NC(=O)[C@H](CCN)NC(=O)[C@H](CCN)NC1=O (stereo partly shown) [Example 12] (X24-[Thr(3ξ)][Dab][Dab][Dab][dF]L[Dab][Dab][Thr(3ξ)]; lactam 3-C)

>  <experimental.target>
Klebsiella pneumoniae

>  <MIC K. pneumoniae CCUG-59348, micrograms/mL>
16

$$$$

# context switch: different compound, same MIC K. pneumoniae CCUG-59348
Query CC(C)C[C@@H]1NC(=O)[C@@H](Cc2ccccc2)NC(=O)[C@H](CCN)NC(=O)[C@@H](NC(=O)[C@H](CCN)NC(=O)[C@@H](NC(=O)c2ccc(N3CCN(C)CC3)cc2)C(C)O)CCNC(=O)[C@H](C(C)O)NC(=O)[C@H](CCN)NC(=O)[C@H](CCN)NC1=O (stereo partly shown) [Example 55] (X17-[Thr(3ξ)][Dab][Dab][Dab][dF]L[Dab][Dab][Thr(3ξ)]; lactam 3-C) on Klebsiella pneumoniae; MIC K. pneumoniae CCUG-59348 returned: 4

----------
Tested on: Klebsiella pneumoniae
experiment: MIC, compound in combination with a second agent (broth microdilution)
Format: cell-based
assay.conditions: 1:1 (wt:wt) combination with Rifampicin; MIC is total drug concentration
Counter-ions that a name gives are not always drawn. Bridge positions count the residues as written; N and C are the ends. Square brackets hold non-standard residues; d marks the D form. Peptide text beside a SMILES is read from it. * marks the point of attachment. ξ: configuration not given here. Cyclohexylacetyl = O=C(CC1CCCCC1)*; X17 = CN1CCN(c2ccc(C(=O)*)cc2)CC1; Thr(3ξ) = CC(O)[C@H](N)C(=O)O; Dab = NCC[C@H](N)C(=O)O; Inp = O=C(O)C1CCNCC1; Bz = O=C(c1ccccc1)*
Record form. Attribute: MIC K. pneumoniae CCUG-59348. Fill in for each entry.
One number for each entry, in micrograms/mL.

Check out these entries, answers already filled in.
>  <molecule>
CC(C)C[C@@H]1NC(=O)[C@@H](Cc2ccccc2)NC(=O)[C@H](CCN)NC(=O)[C@@H](NC(=O)[C@H](CCN)NC(=O)[C@@H](NC(=O)CC2CCCCC2)C(C)O)CCNC(=O)[C@H](C(C)O)NC(=O)[C@H](CCN)NC(=O)[C@H](CCN)NC1=O (stereo partly shown) [Example C4, TFA salt, reference compound] (Cyclohexylacetyl-[Thr(3ξ)][Dab][Dab][Dab][dF]L[Dab][Dab][Thr(3ξ)]; lactam 3-C)

>  <MIC K. pneumoniae CCUG-59348 [micrograms/mL]>
2

$$$$
>  <molecule>
CC(C)C[C@@H]1NC(=O)[C@@H](Cc2ccccc2)NC(=O)[C@H](CCN)NC(=O)[C@@H](NC(=O)[C@H](CCN)NC(=O)[C@@H](NC(=O)c2ccc(N3CCN(C)CC3)cc2)C(C)O)CCNC(=O)[C@H](C(C)O)NC(=O)[C@H](CCN)NC(=O)[C@H](CCN)NC1=O (stereo partly shown) [Example 55] (X17-[Thr(3ξ)][Dab][Dab][Dab][dF]L[Dab][Dab][Thr(3ξ)]; lactam 3-C)

>  <MIC K. pneumoniae CCUG-59348 [micrograms/mL]>
4

$$$$
>  <molecule>
CC(C)C[C@@H]1NC(=O)[C@@H](Cc2ccccc2)NC(=O)[C@H](CCN)NC(=O)[C@@H](NC(=O)[C@H](CCN)NC(=O)[C@@H](NC(=O)c2ccccc2)C(C)O)CCNC(=O)[C@H](C(C)O)NC(=O)[C@H](CCN)NC(=O)[C@H](CCN)NC1=O (stereo partly shown) [Example C3, sulphate salt, reference compound] (Bz-[Thr(3ξ)][Dab][Dab][Dab][dF]L[Dab][Dab][Thr(3ξ)]; lactam 3-C)

>  <MIC K. pneumoniae CCUG-59348 [micrograms/mL]>
8

$$$$

Now for the molecule whose MIC K. pneumoniae CCUG-59348 we want.
Field MIC K. pneumoniae CCUG-59348 (entry CC(C)C[C@@H]1NC(=O)[C@@H](Cc2ccccc2)NC(=O)[C@H](CCN)NC(=O)[C@@H](NC(=O)[C@H](CCN)NC(=O)[C@@H](NC(=O)C2CCNCC2)C(C)O)CCNC(=O)[C@H](C(C)O)NC(=O)[C@H](CCN)NC(=O)[C@H](CCN)NC1=O (stereo partly shown) [Example 29] (H-[Inp][Thr(3ξ)][Dab][Dab][Dab][dF]L[Dab][Dab][Thr(3ξ)]; lactam 4-C) ) reads 4
